- assayedTarget: TYK2 (Homo sapiens, UniProt P29597)
- Sequence (P29597 whole entry): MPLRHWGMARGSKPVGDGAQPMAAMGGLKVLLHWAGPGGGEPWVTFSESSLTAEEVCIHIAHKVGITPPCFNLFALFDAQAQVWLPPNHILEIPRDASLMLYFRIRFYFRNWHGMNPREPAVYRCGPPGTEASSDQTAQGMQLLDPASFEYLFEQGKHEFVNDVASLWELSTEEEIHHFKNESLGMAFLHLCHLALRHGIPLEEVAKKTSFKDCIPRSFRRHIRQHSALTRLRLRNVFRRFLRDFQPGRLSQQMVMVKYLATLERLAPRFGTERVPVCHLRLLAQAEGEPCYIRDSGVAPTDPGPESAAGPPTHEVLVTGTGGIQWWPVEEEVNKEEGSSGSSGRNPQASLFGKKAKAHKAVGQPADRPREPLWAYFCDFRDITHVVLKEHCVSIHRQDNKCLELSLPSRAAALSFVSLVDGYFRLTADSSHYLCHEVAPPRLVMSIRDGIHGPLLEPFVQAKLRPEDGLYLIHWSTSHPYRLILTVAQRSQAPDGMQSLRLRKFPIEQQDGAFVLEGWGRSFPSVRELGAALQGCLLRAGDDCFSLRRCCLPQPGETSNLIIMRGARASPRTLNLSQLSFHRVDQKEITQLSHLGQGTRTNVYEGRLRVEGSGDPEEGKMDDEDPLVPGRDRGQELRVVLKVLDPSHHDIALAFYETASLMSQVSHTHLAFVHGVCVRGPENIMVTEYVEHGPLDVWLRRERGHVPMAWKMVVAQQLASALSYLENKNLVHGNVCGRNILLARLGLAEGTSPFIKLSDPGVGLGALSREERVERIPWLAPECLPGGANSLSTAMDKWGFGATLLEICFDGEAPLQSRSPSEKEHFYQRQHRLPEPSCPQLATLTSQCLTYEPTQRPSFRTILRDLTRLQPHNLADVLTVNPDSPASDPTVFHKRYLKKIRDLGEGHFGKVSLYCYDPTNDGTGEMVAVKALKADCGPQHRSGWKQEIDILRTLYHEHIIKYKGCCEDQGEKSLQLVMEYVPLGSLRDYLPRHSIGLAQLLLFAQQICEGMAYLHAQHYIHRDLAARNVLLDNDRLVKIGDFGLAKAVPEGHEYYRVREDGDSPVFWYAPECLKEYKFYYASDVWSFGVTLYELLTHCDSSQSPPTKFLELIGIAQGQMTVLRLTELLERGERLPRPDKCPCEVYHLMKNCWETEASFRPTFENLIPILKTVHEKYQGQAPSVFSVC
- testDetails: HEK-Blue IL-23 reporter assay (SEAP) for TYK2 pseudokinase inhibition
- Assay type: cell-based
- Design: HEK-Blue™ IL-23 and IFNα/β cells with a stably-integrated cytokine receptor and STAT3 or STAT1; host or cells: HEK-Blue IL-23 / HEK-Blue IFNα/β cells (HEK293 background)
- recordedConditions: HEK-Blue IL-23 cells, 10 ng/mL human recombinant IL-23, SEAP reporter; read-out: IL23 IC50
- Description: HEK-Blue™ IL-23 and IFNα/β cells with a stably-integrated cytokine receptor and STAT3 or STAT1 express STAT-inducible secreted embryonic alkaline phosphatase (SEAP) reporter gene upon cytokine stimulation. […] SEAP induction is measured using the QUANTI Blue™ Solution (InvivoGen) according to the manufacturer's instructions. Inhibition data are calculated by comparison to no inhibitor control wells for 000 inhibition and non-stimulated control wells for 10000 inhibition. […]
Give measured IC50 for each item. Keep answers brief.

compound	assayedTarget	IC50
Cc1cc(Nc2cc3c(cn2)c(=O)[nH]n3-c2ccc(OC(F)(F)F)c(F)c2)nc(C)n1 [Compound I-94]	TYK2 (Homo sapiens, UniProt P29597)	< 10 µM
Cc1cc(Nc2cc3c(cn2)c(=O)[nH]n3-c2ccc(Cl)cc2)nc(C)n1 [Compound I-65]	TYK2 (Homo sapiens, UniProt P29597)	< 10 µM
COc1c(-c2ncn(C)n2)cccc1-n1[nH]c(=O)c2cnc(Nc3cc(C)nc(C)n3)cc21 [Compound I-22]	TYK2 (Homo sapiens, UniProt P29597)	< 10 µM
Cn1cc(Nc2cc3c(cn2)c(=O)[nH]n3-c2ccccc2)cn1 [Compound I-5]	TYK2 (Homo sapiens, UniProt P29597)	10 to 30 µM

Quick request: IC50 for each listed item, please.
1. COc1cccc(-n2[nH]c(=O)c3cnc(Nc4ccccn4)cc32)c1 [Compound I-50]
2. COc1c(Cl)cccc1-n1[nH]c(=O)c2cnc(Nc3cc(C)nc(C)n3)cc21 [Compound I-101]

Solution:
1: < 10 µM; 2: > 90 µM

* * *

- assayedTarget: TYK2 (Homo sapiens, UniProt P29597)
- testDetails: HEK-Blue IFNα/β reporter assay (SEAP) for TYK2 pseudokinase inhibition
- Format: cell-based
- recordedConditions: HEK-Blue IFNα/β cells, 1 ng/mL human recombinant IFNα
Give measured IC50 for each item. Keep answers brief.

molecule	measuredValue
COc1cc(-n2[nH]c(=O)c3cnc(Nc4ccc(F)cn4)cc32)ccc1Cl [Compound I-79]	> 90 µM
COc1cccc(-n2[nH]c(=O)c3cnc(Nc4cc(C)nc(C)n4)cc32)n1 [Compound I-33]	< 10 µM

Here's the next entry for you.
Data point: Cc1cc(Nc2cc3c(cn2)c(=O)[nH]n3-c2ccc(Cl)cc2)nc(C)n1 [Compound I-65] ; IC50 = > 90 µM

* * *

Give measured IC50 for each item. Keep answers brief.
- System: IFN-γ-pSTAT1
- testDetails: STAT phosphorylation assay IFN-γ-pSTAT1
- Assay type: cell-based
- recordedConditions: Homo sapiens, 0.25 h; IFN-γ (50 ng/ml) 15 min, phospho-STAT1 Western blot normalized to GAPDH; read-out: Selectivity assays (STATs) % Inhibition IFN-γ-pSTAT1

Previously resolved entries follow.
smilesStructure	assayReadout	measuredValue
O=C(Nc1cc2c(cn1)c(=O)[nH]n2-c1ccccc1)C1CC1	IC50	> 90 µM
Cc1cc(Nc2cc3c(cn2)c(=O)[nH]n3-c2ccccc2)nc(C)n1	IC50	> 90 µM

Here's the next entry for you.
Data point: COc1cccc(-n2[nH]c(=O)c3cnc(Nc4cc(C)nc(C)n4)cc32)c1 ; IC50 = > 90 µM

# credit: patent US12668594B2
